cytotoxic activity in words, cervical cancer cells (HeLa line) values recorded for HeLa (cervical cancer)
assay.metric: cytotoxic activity in words, cervical cancer cells (HeLa line)

[[record]]
molecule = "C=CC1C[N@@]2CCC1C[C@@H]2C(OCc1cn(C2CC(n3cc(F)c(=O)[nH]c3=O)OC2CO)nn1)c1ccnc2ccccc12 (stereo partly shown) [PCN5FdU]"
experimental_value = "medium active"

[[record]]
molecule = "O=c1[nH]c(=O)n(C2CC(n3cc(C4CN5CCC4C[C@H]5[C@H](O)c4ccnc5ccccc45)nn3)C(CO)O2)cc1F (stereo partly shown) [CD5FdU]"
experimental_value = "medium active"

[[record]]
molecule = "C=CC1C[N@@]2CCC1C[C@H]2[C@H](OCc1cn(C2CC(n3cc(F)c(=O)[nH]c3=O)OC2CO)nn1)c1ccnc2ccccc12 (stereo partly shown) [PCD5FdU]"
experimental_value = "medium active"

[[record]]
molecule = "O=c1[nH]c(=O)n(C2CC(n3cc(C4CN5CCC4C[C@@H]5[C@@H](O)c4ccnc5ccccc45)nn3)C(CO)O2)cc1F (stereo partly shown) [CN5FdU]"
experimental_value = "medium active"

